# SYSTEM NAME: T1, full-length (FL) human 14-3-3γ protein (human, UniProt P61981 1-247)
# T1 construct: 14-3-3 gamma, human, full length; also called 14-3-3γ FL
# T1 sequence (looked up): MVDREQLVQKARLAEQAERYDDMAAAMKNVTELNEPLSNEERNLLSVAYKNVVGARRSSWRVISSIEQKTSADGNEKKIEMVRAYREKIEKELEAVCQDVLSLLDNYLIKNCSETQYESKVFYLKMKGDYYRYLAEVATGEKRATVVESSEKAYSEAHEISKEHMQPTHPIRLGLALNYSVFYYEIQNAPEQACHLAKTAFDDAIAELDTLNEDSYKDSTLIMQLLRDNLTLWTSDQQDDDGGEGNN
# TEST SUMMARY: fluorescence polarisation; fluorescence anisotropy; dilution series of 14-3-3γ (starting at 500 μM) to 10 nM FAM-labeled peptide; 10 mM HEPES pH 7.4, 150 mM NaCl, 0.1% Tween20, 1 mg/mL BSA; room temperature; Hill fit; triplicates
# MEASUREMENT PARAMETERS: both partners purified
[ ]: non-standard residue; d: D form. The star is where a group is joined. 5FAM = O=C1OC2(c3ccc(O)cc3Oc3cc(O)ccc32)c2ccc(C(=O)*)cc21; pS = N[C@@H](COP(=O)(O)O)C(=O)O; Ahx = NCCCCCC(=O)O
READOUT LABEL: pKd
Note on units: pKd is unitless, being -log10 of a concentration expressed in mol/L.

*Q* // query pKd value for entry {5FAM-Ahx}-GLMQRSS[pS]FPYTTKG-NH2 (SMILES CSCC[C@H](NC(=O)[C@H](CC(C)C)NC(=O)CNC(=O)CCCCCNC(=O)c1ccc2c(c1)C(=O)OC21c2ccc(O)cc2Oc2cc(O)ccc21)C(=O)N[C@@H](CCC(N)=O)C(=O)N[C@@H](CCCNC(=N)N)C(=O)N[C@@H](CO)C(=O)N[C@@H](CO)C(=O)N[C@@H](COP(=O)(O)O)C(=O)N[C@@H](Cc1ccccc1)C(=O)N1CCC[C@H]1C(=O)N[C@@H](Cc1ccc(O)cc1)C(=O)N[C@H](C(=O)N[C@H](C(=O)N[C@@H](CCCCN)C(=O)NCC(N)=O)[C@@H](C)O)[C@@H](C)O, forkhead box O3 (FOXO3), seven residues before and after phosphosite 413; also called FOXO pS413; source: synthetic peptide, bought: GenScript) [FOXO3 pS413 peptide (peptide 1), FAM-labelled]
*A* 5.80
